- Tested on: ESKAPE pathogens
- Assay explanation: MIC micro broth dilution assay, statements and stacked scores over all ESKAPE pathogens
- Assay type: cell-based
- Setup conditions: dose 5 ug/ml; letters E,S,K,A,P,E = ESKAPE pathogens; — = none
- Description: For this study we used a representative panel of multi-drug resistant clinical ESKAPE pathogen isolates (Supplemental Table S6).^42 43 3a, 44 45 Gram-positive organisms were grown in tryptic soy broth media (TSB), whilst Gram-negative organisms were grown in lysogeny Broth (LB), as described by us previously. ^43 MIC and MBC determination assays. […]
Value type: pathogens against which the compound showed activity at 5 ug/ml

CCCC[C@H]1CN(CCCC[C@H]2CNC(=N)N2CCCCC2CCCCC2)C(=N)N1CCc1ccc(-c2ccccc2)cc1 [Compound 12]: ESKAE
N=C1NC[C@H](CCCCN2C[C@H](CC3CCCCC3)N(CCCCC3CCCCC3)C2=N)N1CCc1cccc(C(F)(F)F)c1 [Compound 8]: EKAPE
N=C1NC[C@H](CCCCN2C[C@H](CC3CCCCC3)N(CCc3ccc(-c4ccccc4)cc3)C2=N)N1CCC12CC3CC(CC(C3)C1)C2 [Compound 27]: SKP
